Where do the numbers come from? From paper PMC11372839.

Below: a set of entries, each annotated with reported MBC.
- Test system: Staphylococcus aureus
- assay_method_text: MIC and MBC determination, microdilution method
- Type: cell-based
- reported_conditions: read-out: MBC, S. aureus
test_readout: MBC (µg/mL)

{"compound": "CCCCCCCCCC[n+]1cccc(C(N)=O)c1.O=C([O-])c1ccccc1O", "units_of_measure": "µg/mL", "measured_number": 256}
{"compound": "CCCCCCCCCCCC[n+]1cccc(C(N)=O)c1.O=C([O-])c1ccccc1O", "units_of_measure": "µg/mL", "measured_number": 8}
{"compound": "CCCCCCCCCCCCCC[n+]1cccc(C(N)=O)c1.O=C([O-])c1ccccc1O", "units_of_measure": "µg/mL", "measured_number": 0.5}
{"compound": "NC(=O)c1cccnc1.O=C(O)c1ccccc1O [[NA][SAL], reference compound]", "units_of_measure": "µg/mL", "measured_number": 2050}

---

- assay_method_text: Octanol–water partition coefficient, shake-flask method (OECD Test No. 107)
- Format: physicochemical

{"compound": "O=C(O)c1ccccc1O [SAL, salicylic acid, reference compound]", "logP at 24 h": 1.82}
{"compound": "NC(=O)c1cccnc1 [NA, nicotinamide, reference compound]", "logP at 24 h": -0.66}

---

- assay_method_text: Contact angle of aqueous solutions, sessile drop method on paraffin
- Assay type: physicochemical
- reported_conditions: aqueous solution, concentration 1.00%, 25 °C

{"compound": "NC(=O)c1cccnc1.O=C(O)c1ccccc1O [[NA][SAL], reference compound]", "Contact angle [°]": 99.9}
{"compound": "CCCC[n+]1cccc(C(N)=O)c1.O=C([O-])c1ccccc1O [compound 2]", "Contact angle [°]": 103.9}
{"compound": "CC[n+]1cccc(C(N)=O)c1.O=C([O-])c1ccccc1O [compound 1]", "Contact angle [°]": 109.7}
{"compound": "NC(=O)c1cccnc1 [NA, nicotinamide, reference compound]", "Contact angle [°]": 110.6}
{"compound": "CCCCCC[n+]1cccc(C(N)=O)c1.O=C([O-])c1ccccc1O [compound 3]", "Contact angle [°]": 98.51}

---

- System: Staphylococcus epidermidis
- assay_method_text: MIC and MBC determination, microdilution method;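 further: column refers to Staphylococcus epidermidis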
- Assay type: cell-based
- reported_conditions: 18 h, read-out: MIC, S. epidermidis
# Lookup of reported MIC keyed by entry

{"molecule": "CCCCCCCCCCCCCC[n+]1cccc(C(N)=O)c1.O=C([O-])c1ccccc1O", "MIC": "4 mg/L"}
{"molecule": "NC(=O)c1cccnc1.O=C(O)c1ccccc1O [[NA][SAL], reference compound]", "MIC": "2050 mg/L"}
{"molecule": "CCCCCCCCCC[n+]1cccc(C(N)=O)c1.O=C([O-])c1ccccc1O", "MIC": "256 mg/L"}
{"molecule": "CCCCCCCC[n+]1cccc(C(N)=O)c1.O=C([O-])c1ccccc1O", "MIC": "2050 mg/L"}
{"molecule": "CC[n+]1cccc(C(N)=O)c1.O=C([O-])c1ccccc1O", "MIC": "4100 mg/L"}
{"molecule": "CCCCCC[n+]1cccc(C(N)=O)c1.O=C([O-])c1ccccc1O", "MIC": "4100 mg/L"}
{"molecule": "CCCC[n+]1cccc(C(N)=O)c1.O=C([O-])c1ccccc1O", "MIC": "2050 mg/L"}
{"molecule": "CCCCCCCCCCCC[n+]1cccc(C(N)=O)c1.O=C([O-])c1ccccc1O", "MIC": "256 mg/L"}

---

- assay_method_text: Solubility in PBS
- reported_conditions: Pharmacopeia solubility class, PBS pH 7.4, 25 °C
test_readout: Solubility in PBS, Class

{"cpd_smiles": "CC[n+]1cccc(C(N)=O)c1.O=C([O-])c1ccccc1O", "result": "Very Soluble (<1)"}
{"cpd_smiles": "CCCC[n+]1cccc(C(N)=O)c1.O=C([O-])c1ccccc1O", "result": "Very Soluble (<1)"}
{"cpd_smiles": "CCCCCC[n+]1cccc(C(N)=O)c1.O=C([O-])c1ccccc1O", "result": "Very Soluble (<1)"}

---

- assay_method_text: Contact angle of aqueous solutions, sessile drop method on paraffin
- Format: physicochemical
- reported_conditions: aqueous solution, concentration 0.50%, 25 °C
- Description: The contact angle (CA) measurements were carried out using a DSA100S analyzer (Krüss, Germany, accuracy ±0.1°), at 25 °C. The determination of the contact angle was based on the sessile drop method, i.e., drops of the analyzed solution were deposited on a solid surface (paraffin). The images of the drops were taken with a CCD camera, digitized, and evaluated using Young–Laplace fitting. […]
Kindly return yes (1) if reported Contact angle is no lower than 100 °; return no (0) if it is lower.

{"compound": "CCCCCC[n+]1cccc(C(N)=O)c1.O=C([O-])c1ccccc1O", "class_label": "yes (1)"}
{"compound": "CCCC[n+]1cccc(C(N)=O)c1.O=C([O-])c1ccccc1O", "class_label": "yes (1)"}
{"compound": "CCCCCCCC[n+]1cccc(C(N)=O)c1.O=C([O-])c1ccccc1O", "class_label": "no (0)"}
{"compound": "NC(=O)c1cccnc1 [NA, nicotinamide, reference compound]", "class_label": "yes (1)"}
{"compound": "NC(=O)c1cccnc1.O=C(O)c1ccccc1O [[NA][SAL], reference compound]", "class_label": "yes (1)"}
{"compound": "CC[n+]1cccc(C(N)=O)c1.O=C([O-])c1ccccc1O", "class_label": "yes (1)"}
